assayed-system: T1, human lactadherin (human, UniProt Q08431 24-387)
T1 sequence (looked up): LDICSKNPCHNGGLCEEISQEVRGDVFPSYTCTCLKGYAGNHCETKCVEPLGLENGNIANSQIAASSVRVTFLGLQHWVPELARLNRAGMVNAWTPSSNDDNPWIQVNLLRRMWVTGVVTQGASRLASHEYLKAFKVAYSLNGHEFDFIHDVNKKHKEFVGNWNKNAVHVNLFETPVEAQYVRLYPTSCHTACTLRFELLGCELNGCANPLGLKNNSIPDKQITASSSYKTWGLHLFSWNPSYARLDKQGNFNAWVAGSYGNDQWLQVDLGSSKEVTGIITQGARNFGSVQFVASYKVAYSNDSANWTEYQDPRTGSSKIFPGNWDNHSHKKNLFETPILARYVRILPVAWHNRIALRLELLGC
protocol-details: cell-based or functional assay
Can you tell me inhibition of SKOV-3 cell adhesion to coated human lactadherin, antibody at 5 ug/mL for the items I'm about to list?

Tell me measured inhibition of SKOV-3 cell adhesion to coated human lactadherin, antibody at 5 ug/mL for anti-lactadherin antibody 346B6 (antibody, IgG1, V domains shown, VH identical to that of 311A7; also called hybridoma 346B6; LMBP 9490CB) VH: EFQLQQSGPELVKPGASVRISCKASGYSFTDYNMNWVKQSDGKTLEWIGVINPDYGTTNNNQRFRGKATLTLDLSSSTAYMQLNSLTSEDSAVYYCARGGDYGAGYALDYWGQGTSVTVSS VL: QIVLTQSPAIMSASPGEKVTMTCSASSSVSYMYWYQQKPGSSPRLLIYDTSNLASGVPVRFSGSGSGTSYSLTISRMEAEDAATYYCQQWSSYPPTFGAGTKLELKR please.
25%

Tell me measured inhibition of SKOV-3 cell adhesion to coated human lactadherin, antibody at 5 ug/mL for anti-lactadherin antibody 416H9 (antibody, IgG1, V domains shown, also called hybridoma 416H9; LMBP 9492CB) VH: QVTLKESGPGVLQSSQTLSLTCSFSGFSLSTSGLGVIWIRQPSGAGLEWLAQIYWDDNKRYNPSLKSRLTISKDTSRNQVFLKITPVDTADTATYYCARRTFYDYDEGFYAMDYWGQGTSVTVSS VL: DIQMTQTTSSLSASLGDRVTITCRASQDISNYLNWYQQKPDGTIKLLIYYASRLHSGVPSRFSGSGSGTDYSLTISNLEQEDIATYFCQQGNTLPLTFGAGTKLELKR please.
> 70%

Tell me measured inhibition of SKOV-3 cell adhesion to coated human lactadherin, antibody at 5 ug/mL for anti-lactadherin antibody 311A7 (antibody, IgG1, V domains shown, also called murine 311A7; hybridoma 311A7) VH: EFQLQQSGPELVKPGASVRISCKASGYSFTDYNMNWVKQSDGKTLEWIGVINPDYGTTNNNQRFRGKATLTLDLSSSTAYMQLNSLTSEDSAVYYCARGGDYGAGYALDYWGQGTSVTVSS VL: QIVLTQSPAIMSASPGEKVTITCSASSSVSYMYWFQQKPGTSPKLWIYSTSNLASGVPARFSGSGSGTSYSLTISRMEAEDAATYYCQQRSSYPRTFGGGTKLEIKR please.
> 70%

Tell me measured inhibition of SKOV-3 cell adhesion to coated human lactadherin, antibody at 5 ug/mL for huMc3 antibody (antibody, V domains shown) VH: EVQLVQSGAEVKKPGASVKVSCKASGYSFTGYTMHWVKQSPGMNLEWIGLINPYNGGTVYNQKFQDKATLTVDKSTSTAYMELSSLRSEDTAVYFCARRWRYTMDYWGQGTLVTVSS VL: DIVMTQSPDSLAVSLGERATITCKASQDVSIGVAWYQQKPGQSPKLLIYSASSRYTGVPDRFSGSGSGTDFTLTISSLQAEDVAVYYCQQHYTSPFTFGSGTKVEIK please.
> 70%

Tell me measured inhibition of SKOV-3 cell adhesion to coated human lactadherin, antibody at 5 ug/mL for anti-lactadherin antibody 215A9 (antibody, IgG1, V domains shown, also called 2154A9; hybridoma 215A9) VH: QVSLKESGPGILQSSQTLSLTCSFSGFSLSTSGMGVSWIRQPSGKGLEWLAHIYWNDDKRYNPSLKSRLTISKDTSRDQVFLKITSVDTADTATYFCARRPRFYRDYDEGIDFWGQGTTLTVSS VL: QAVVTQESALTTSPGETVTLTCRSSTGAVTTNNYANWVQEKPDHLFTGLIGGTNNRTPGVPARFSGSLIGDKAALTITGAQTEDEAIYFCALWYSNLWVFGGGTKLTVLG please.
> 70%

Tell me measured inhibition of SKOV-3 cell adhesion to coated human lactadherin, antibody at 5 ug/mL for anti-lactadherin antibody 399A12 (antibody, V domains shown, Murine monoclonal, kappa light chain; Variable regions identical to those of 416H9; also called hybridoma 399A12; LMBP 9491CB) VH: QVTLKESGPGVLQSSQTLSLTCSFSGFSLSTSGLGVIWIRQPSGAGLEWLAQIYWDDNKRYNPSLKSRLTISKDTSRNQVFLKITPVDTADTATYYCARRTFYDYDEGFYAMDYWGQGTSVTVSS VL: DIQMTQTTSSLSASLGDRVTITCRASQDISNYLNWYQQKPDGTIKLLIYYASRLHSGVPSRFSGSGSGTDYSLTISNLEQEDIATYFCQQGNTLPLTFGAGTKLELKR please.
> 70%
